Target: AXL (human catalytic domain) (Homo sapiens)
Construct: purchased Upstate Ltd. 14-512
Sequence (P30530 473-894): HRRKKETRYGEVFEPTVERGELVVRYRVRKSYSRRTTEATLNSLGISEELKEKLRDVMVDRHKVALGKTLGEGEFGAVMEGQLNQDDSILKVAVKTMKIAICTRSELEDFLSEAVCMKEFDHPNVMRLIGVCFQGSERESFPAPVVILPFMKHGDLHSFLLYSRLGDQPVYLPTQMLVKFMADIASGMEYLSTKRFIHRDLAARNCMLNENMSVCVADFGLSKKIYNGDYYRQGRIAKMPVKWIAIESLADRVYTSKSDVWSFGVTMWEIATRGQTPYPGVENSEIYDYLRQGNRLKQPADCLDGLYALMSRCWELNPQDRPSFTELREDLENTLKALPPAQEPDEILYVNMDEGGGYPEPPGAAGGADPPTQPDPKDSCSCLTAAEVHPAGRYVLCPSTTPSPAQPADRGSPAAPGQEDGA
Assay: AXL (human catalytic domain) Enzyme Activity Assay (IMAP fluorescence polarisation)
Format: biochemical
Details: first data set; recombinant AXL isoform 1 aa473-894, 150 μM ATP
Property: IC50; scope: individual compounds

Before answering, review these 6 worked examples.
[
  {
    "compound": "CCC(=O)Nc1nc2cccc(-c3ccc(OC)cc3)n2n1",
    "readoutName": "IC50",
    "measuredResult": "1000 to 10000 nM"
  },
  {
    "compound": "CNCCCOc1cccc(Nc2nc3cccc(-c4ccc5c(c4)OCCO5)n3n2)c1",
    "readoutName": "IC50",
    "measuredResult": "< 1000 nM"
  },
  {
    "compound": "CC(Oc1ccc(Nc2nc3cccc(-c4ccc5c(c4)OCCO5)n3n2)cc1)C(N)=O (stereo not shown)",
    "readoutName": "IC50",
    "measuredResult": "< 1000 nM"
  },
  {
    "compound": "O=C(Nc1nc2cccc(-c3ccnc(F)c3)n2n1)C1CC1",
    "readoutName": "IC50",
    "measuredResult": "1000 to 10000 nM"
  },
  {
    "compound": "O=C(Nc1nc2cccc(NC3CCCC3)n2n1)C1CC1",
    "readoutName": "IC50",
    "measuredResult": "1000 to 10000 nM"
  },
  {
    "compound": "CCN(CC)CCNc1ccc(-c2cccc3nc(NC(=O)C4CC4)nn23)cc1",
    "readoutName": "IC50",
    "measuredResult": "1000 to 10000 nM"
  }
]

// lookup IC50 for c1cc(-c2ccc3c(c2)CCO3)n2nc(Nc3ccc(N4CCNCC4)cc3)nc2c1
< 1000 nM

For CN(C)CCOc1cccc(Nc2nc3cccc(-c4ccc5c(c4)OCCO5)n3n2)c1 then?
< 1000 nM

Then this compound: COc1ccc(-c2cccc3nc(NC(=O)CC(C)C)nn23)cc1
1000 to 10000 nM

Param item: c1cc(-c2ccc3occc3c2)n2nc(Nc3ccc(OCCN4CCCCC4)cc3)nc2c1
< 1000 nM

###

Target: AXL (human catalytic domain) (Homo sapiens)
Construct: purchased Upstate Ltd. 14-512
Sequence (P30530 473-894): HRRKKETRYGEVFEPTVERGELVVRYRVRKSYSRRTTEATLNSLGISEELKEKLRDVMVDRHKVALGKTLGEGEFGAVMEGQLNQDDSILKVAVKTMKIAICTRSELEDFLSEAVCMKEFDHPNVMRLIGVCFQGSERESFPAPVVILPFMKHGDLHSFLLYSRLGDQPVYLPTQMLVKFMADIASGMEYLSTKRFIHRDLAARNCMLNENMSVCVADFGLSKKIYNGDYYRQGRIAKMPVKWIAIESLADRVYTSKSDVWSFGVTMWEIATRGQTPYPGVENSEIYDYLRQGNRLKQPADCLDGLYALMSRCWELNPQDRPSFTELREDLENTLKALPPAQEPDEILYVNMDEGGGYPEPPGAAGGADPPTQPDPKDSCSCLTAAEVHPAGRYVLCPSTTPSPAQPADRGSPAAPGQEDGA
Assay: AXL (human catalytic domain) Enzyme Activity Assay (IMAP fluorescence polarisation)
Type: biochemical
Settings: first data set; recombinant AXL isoform 1 aa473-894, 150 μM ATP
pIC50: −log10 of the molar value.
readoutName: pIC50

The examples below pair each entry with its known result.
[
  {
    "compound": "O=C(Nc1nc2ccnc(-c3ccc4c(c3)OCCO4)n2n1)C1CC1",
    "pIC50": 6.44
  },
  {
    "compound": "CN(C)c1cccc(-c2cccc3nc(NC(=O)C4CC4)nn23)c1",
    "pIC50": "5.00 to 6.00"
  }
]

Could you now look at the following molecule, please?
Please report the recorded pIC50 for COc1ccc(-c2cccc3nc(Nc4ccc(OCCN5CCCCC5)cc4)nn23)cc1 .
> 6.00

###

Molecular target: AXL (human catalytic domain) (Homo sapiens, UniProt P30530)
Construct: purchased Upstate Ltd. 14-512
Assay: AXL (human catalytic domain) Enzyme Activity Assay (IMAP fluorescence polarisation)
Type: biochemical
Conditions: further data set (WW-001 through WW-169, XX-001 through XX-469, YY-001 through YY-016, ZZ-001 through ZZ-003); 150 μM ATP
readoutName: IC50

Field: example entries. Status: answers known.
[
  {
    "compound": "CS(=O)(=O)Nc1ccc(-c2cccc3nc(Nc4ccc(OCCN5CCCC5)cc4)nn23)cc1 [XX-253]",
    "IC50": "100 to 1000 nM"
  },
  {
    "compound": "Cc1ccccc1-c1cccc2nc(Nc3ccc(OCCN4CCCC4)cc3)nn12 [XX-212]",
    "IC50": "1000 to 10000 nM"
  },
  {
    "compound": "CCOc1cccc(-c2cccc3nc(Nc4ccc(OCCN5CCCC5)cc4)nn23)c1 [XX-337]",
    "IC50": "100 to 1000 nM"
  },
  {
    "compound": "O=C(Nc1nc2cccc(-c3ccccc3O)n2n1)C1CC1 [WW-037]",
    "IC50": "1000 to 10000 nM"
  }
]

Would you mind telling me what IC50 value was observed for Cn1nc(COc2cccc(-c3cccc4nc(Nc5ccc(OCCN6CCCC6)cc5)nn34)c2)cc1-c1ccccc1 [XX-459] ?
1000 to 10000 nM

O=C(Nc1nc2cccc(-c3cccc(CO)c3)n2n1)C1CC1 [WW-028] ?
1000 to 10000 nM

Let us now turn to c1cc(-c2ccc3c(c2)OCCO3)n2nc(Nc3ccnc(OCCN4CCCCC4)c3)nc2c1 [XX-101]
≤ 100 nM

###

Biological target: AXL (human catalytic domain) (Homo sapiens, UniProt P30530)
Construct: purchased Upstate Ltd. 14-512
Assay: AXL (human catalytic domain) Enzyme Activity Assay (IMAP fluorescence polarisation)
Assay type: biochemical
Conditions: further data set (WW-001 through WW-169, XX-001 through XX-469, YY-001 through YY-016, ZZ-001 through ZZ-003); 150 μM ATP
Method: Biological Methods AXL (human catalytic domain) Enzyme Activity Assay Reagents Kinase Assay Reaction Buffer: This consisted of 20 mM HEPES pH 7.0, 10 mM MgCl2, 1 mM DTT, […], 0.01% Triton X100 (v/v), and 0.01% BSA (w/v). All buffer components were purchased from Sigma-Aldrich at reagent grade or higher. […] ATP: Supplied by Sigma (product code A-7699). […] Final ATP concentration in the assay was 150 μM; this concentration represents the KM.ATP for this enzyme calculated in this assay. […]
pIC50: −log10 of the molar value.
readoutName: pIC50

[
  {
    "compound": "COc1ccc(-c2cccc3nc(Nc4ccc(N5CCOCC5)cc4)nn23)cc1",
    "target": "AXL (human catalytic domain) (Homo sapiens, UniProt P30530)",
    "readoutName": "pIC50",
    "measuredResult": "≥ 7.00"
  },
  {
    "compound": "COc1ccc(-c2cccc3nc(Nc4ccc(OCCCN5C(=O)c6ccccc6C5=O)cc4)nn23)cc1",
    "target": "AXL (human catalytic domain) (Homo sapiens, UniProt P30530)",
    "readoutName": "pIC50",
    "measuredResult": "6.00 to 7.00"
  },
  {
    "compound": "COc1ccc(-c2cccc3nc(Nc4cccc(C(C)=O)c4)nn23)cc1",
    "target": "AXL (human catalytic domain) (Homo sapiens, UniProt P30530)",
    "readoutName": "pIC50",
    "measuredResult": "6.00 to 7.00"
  },
  {
    "compound": "CC(C)CS(=O)(=O)n1cc(-c2cccc3nc(Nc4ccc(OCCN5CCCC5)cc4)nn23)cn1",
    "target": "AXL (human catalytic domain) (Homo sapiens, UniProt P30530)",
    "readoutName": "pIC50",
    "measuredResult": "6.00 to 7.00"
  },
  {
    "compound": "O=C(Nc1nc2cccc(-c3ccoc3)n2n1)C1CC1",
    "target": "AXL (human catalytic domain) (Homo sapiens, UniProt P30530)",
    "readoutName": "pIC50",
    "measuredResult": "5.00 to 6.00"
  }
]

Enter reported pIC50 observed with AXL (human catalytic domain) (Homo sapiens, UniProt P30530) for c1cc(-c2ccc(N3CCOCC3)cc2)n2nc(Nc3ccc(OCCN4CCCC4)cc3)nc2c1
≥ 7.00

# repeat for O=S(=O)(c1cccc(Cl)c1)n1cc(-c2cccc3nc(Nc4ccc(OCCN5CCCC5)cc4)nn23)cn1
6.00 to 7.00

Can you handle CCOc1ccc(-c2nccc3nc(NC(=O)C4CC4)nn23)cc1 next?
6.00 to 7.00
